Below are compounds with their MIC50 as measured on C. krusei (ATCC 6258).
experimental_readout: MIC50 (µg/mL)

Worked examples, 5 compounds total:
O=C(CSc1nnc(CCSc2nnc(NC3CCCCC3)s2)o1)c1ccc(Cl)cc1 ... 50
O=C(CSc1nnc(CCSc2nnc(NC3CCCCC3)s2)o1)Nc1ccc(Cl)cc1 ... 50
O=C(CSc1nnc(CCSc2nnc(NC3CCCCC3)s2)o1)Nc1ccc([N+](=O)[O-])cc1 ... 1.56
O=C(CSc1nnc(CCSc2nnc(NC3CCCCC3)s2)o1)c1ccccc1 ... 50
Cc1ccc2nc(NC(=O)CSc3nnc(CCSc4nnc(NC5CCCCC5)s4)o3)sc2c1 ... 50

(A) COc1ccc(C(=O)CSc2nnc(CCSc3nnc(NC4CCCCC4)s3)o2)cc1
(B) O=C(CSc1nnc(CCSc2nnc(NC3CCCCC3)s2)o1)c1ccc(F)cc1
// task: argmin of MIC50 over [ A , B ] Pick one and reply with its label.
B

(A) Cc1ccc(C(=O)CSc2nnc(CCSc3nnc(NC4CCCCC4)s3)o2)cc1
(B) O=C(CSc1nnc(CCSc2nnc(NC3CCCCC3)s2)o1)Nc1nc2ccccc2s1
(C) O=C(CSc1nnc(CCSc2nnc(NC3CCCCC3)s2)o1)c1ccc([N+](=O)[O-])cc1
Hello, I need these entries ordered by MIC50, highest reading first. Thanks! # output: labels, in the requested order
A, B, C

* * *

experimental_readout: melting point (°C)

O=C(CSc1nnc(CCSc2nnc(NC3CCCCC3)s2)o1)Nc1nc2ccc(Cl)cc2s1 ... 213

(P) Cc1ccc(C(=O)CSc2nnc(CCSc3nnc(NC4CCCCC4)s3)o2)cc1
(Q) O=C(CSc1nnc(CCSc2nnc(NC3CCCCC3)s2)o1)Nc1nc2ccccc2s1
Rank P against Q by their melting point values and give the higher one. Pick one and reply with its label.
Q
(Q: 214 °C, P: 136 °C)

(a) Cc1ccc2nc(NC(=O)CSc3nnc(CCSc4nnc(NC5CCCCC5)s4)o3)sc2c1
(b) O=C(CSc1nnc(CCSc2nnc(NC3CCCCC3)s2)o1)c1ccc([N+](=O)[O-])cc1
// task: argmin of melting point over [ a , b ] Pick one and reply with its label.
b
(b: 144 °C, a: 209 °C)

* * *

Below are molecules with their MIC50 as measured on C. glabrata (ATCC 90030).
experimental_readout: MIC50 (µg/mL)

Worked examples, 10 molecules total:
O=C(CSc1nnc(CCSc2nnc(NC3CCCCC3)s2)o1)Nc1nc2ccc(F)cc2s1 ... 6.25
O=C(CSc1nnc(CCSc2nnc(NC3CCCCC3)s2)o1)Nc1ccc([N+](=O)[O-])cc1 ... 1.56
O=C(CSc1nnc(CCSc2nnc(NC3CCCCC3)s2)o1)c1ccccc1 ... 50
COc1ccc(NC(=O)CSc2nnc(CCSc3nnc(NC4CCCCC4)s3)o2)cc1 ... 100
Cc1ccc2nc(NC(=O)CSc3nnc(CCSc4nnc(NC5CCCCC5)s4)o3)sc2c1 ... 25
COc1ccc(C(=O)CSc2nnc(CCSc3nnc(NC4CCCCC4)s3)o2)cc1 ... 25
O=C(CSc1nnc(CCSc2nnc(NC3CCCCC3)s2)o1)c1ccc([N+](=O)[O-])cc1 ... 1.56
O=C(CSc1nnc(CCSc2nnc(NC3CCCCC3)s2)o1)c1ccc(Cl)cc1 ... 25
O=C(CSc1nnc(CCSc2nnc(NC3CCCCC3)s2)o1)Nc1nc2ccc(Cl)cc2s1 ... 25
O=C(CSc1nnc(CCSc2nnc(NC3CCCCC3)s2)o1)Nc1nc2ccccc2s1 ... 50

(A) O=C(CSc1nnc(CCSc2nnc(NC3CCCCC3)s2)o1)Nc1ccc(Cl)cc1
(B) COc1ccc2nc(NC(=O)CSc3nnc(CCSc4nnc(NC5CCCCC5)s4)o3)sc2c1
(C) CC(=O)N1CCN(c2ccc(OCC3COC(Cn4ccnc4)(c4ccc(Cl)cc4Cl)O3)cc2)CC1 (stereo not drawn) [Ketoconazole, reference compound]
(D) Cc1ccc(NC(=O)CSc2nnc(CCSc3nnc(NC4CCCCC4)s3)o2)cc1
(E) O=C(CSc1nnc(CCSc2nnc(NC3CCCCC3)s2)o1)Nc1nc2ccc([N+](=O)[O-])cc2s1
List the 5 entries from lowest MIC50 to highest MIC50 value. # output: labels, in the requested order
C, E, B, A, D

* * *

Reported IC50 by item:
Assay: MTT cytotoxicity test
Type: cell-based
Details: mouse, NIH/3T3 mouse embryonic fibroblast cells, NIH/3T3 cell line, read-out: IC50 (cytotoxic activity)

Worked examples, 2 compounds total:
O=C(CSc1nnc(CCSc2nnc(NC3CCCCC3)s2)o1)Nc1nc2ccc([N+](=O)[O-])cc2s1 ... 406 µg/mL
O=C(CSc1nnc(CCSc2nnc(NC3CCCCC3)s2)o1)Nc1ccc([N+](=O)[O-])cc1 ... > 500 µg/mL

API: the following record is the query input.
I have this compound here, O=C(CSc1nnc(CCSc2nnc(NC3CCCCC3)s2)o1)c1ccc([N+](=O)[O-])cc1 , and I need its recorded IC50.
> 500 µg/mL

* * *

Below are compounds with their MIC50 as measured on C. krusei (ATCC 6258).
experimental_readout: MIC50 (µg/mL)

Worked examples, 4 compounds total:
O=C(CSc1nnc(CCSc2nnc(NC3CCCCC3)s2)o1)Nc1nc2ccc([N+](=O)[O-])cc2s1 ... 1.56
O=C(CSc1nnc(CCSc2nnc(NC3CCCCC3)s2)o1)Nc1nc2ccc(Cl)cc2s1 ... 25
O=C(CSc1nnc(CCSc2nnc(NC3CCCCC3)s2)o1)Nc1ccc(F)cc1 ... 50
COc1ccc(NC(=O)CSc2nnc(CCSc3nnc(NC4CCCCC4)s3)o2)cc1 ... 100

(1) COc1ccc2nc(NC(=O)CSc3nnc(CCSc4nnc(NC5CCCCC5)s4)o3)sc2c1
(2) CC(=O)N1CCN(c2ccc(OCC3COC(Cn4ccnc4)(c4ccc(Cl)cc4Cl)O3)cc2)CC1 (centres unmarked) [Ketoconazole, reference compound]
(3) Cc1ccc(NC(=O)CSc2nnc(CCSc3nnc(NC4CCCCC4)s3)o2)cc1
(4) O=C(CSc1nnc(CCSc2nnc(NC3CCCCC3)s2)o1)Nc1nc2ccc(F)cc2s1
Hello, I need these entries ordered by MIC50, highest reading first. Thanks! # output: labels, in the requested order
3, 4, 1, 2
(3: 100 µg/mL, 4: 50 µg/mL, 1: 25 µg/mL, 2: 1.56 µg/mL)

* * *

experimental_readout: melting point (°C)

COc1ccc(C(=O)CSc2nnc(CCSc3nnc(NC4CCCCC4)s3)o2)cc1 [Compound 6c] ... 120
O=C(CSc1nnc(CCSc2nnc(NC3CCCCC3)s2)o1)c1ccccc1 [Compound 6a] ... 141
O=C(CSc1nnc(CCSc2nnc(NC3CCCCC3)s2)o1)c1ccc(F)cc1 [Compound 6f] ... 131
O=C(CSc1nnc(CCSc2nnc(NC3CCCCC3)s2)o1)c1ccc(Cl)cc1 [Compound 6d] ... 167
O=C(CSc1nnc(CCSc2nnc(NC3CCCCC3)s2)o1)Nc1ccc([N+](=O)[O-])cc1 [Compound 6k] ... 149

* * *

Below are compounds with their MIC50 as measured on C. glabrata (ATCC 90030).
experimental_readout: MIC50 (µg/mL)

Cc1ccc(C(=O)CSc2nnc(CCSc3nnc(NC4CCCCC4)s3)o2)cc1 ... 50
O=C(CSc1nnc(CCSc2nnc(NC3CCCCC3)s2)o1)c1ccc(F)cc1 ... 50
O=C(CSc1nnc(CCSc2nnc(NC3CCCCC3)s2)o1)Nc1ccc(F)cc1 ... 50
